B1: library; numbered along this chain (parent)
chain: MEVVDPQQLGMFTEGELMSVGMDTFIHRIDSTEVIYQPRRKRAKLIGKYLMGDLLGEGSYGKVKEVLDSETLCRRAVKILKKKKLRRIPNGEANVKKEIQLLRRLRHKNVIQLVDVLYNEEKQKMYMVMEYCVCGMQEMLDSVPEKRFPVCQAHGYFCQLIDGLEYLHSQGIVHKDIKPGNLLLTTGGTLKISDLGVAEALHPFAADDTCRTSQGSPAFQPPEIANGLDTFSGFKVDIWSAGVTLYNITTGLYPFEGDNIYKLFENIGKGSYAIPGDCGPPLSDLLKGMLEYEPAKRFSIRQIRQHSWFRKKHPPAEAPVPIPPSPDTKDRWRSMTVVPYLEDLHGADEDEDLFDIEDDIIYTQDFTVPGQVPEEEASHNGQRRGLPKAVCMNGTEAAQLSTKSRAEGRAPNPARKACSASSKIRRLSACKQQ

Variants of: B1
Test: STK11 functional score (HeLa growth suppression), rescaled enrichment; synonymous median = 1, nonsense median = 0 (normalised score)
Conditions: with HeLa; variant type: missense
Entries and their STK11 functional score

variant string: G91M
STK11 functional score: 0.64
--
variant string: R383Y
STK11 functional score: 1.25
--
variant string: M289G
STK11 functional score: -0.0773
--
variant string: E121Q
STK11 functional score: 1.08
--
variant string: L201K
STK11 functional score: 1.64
--
variant string: A347M
STK11 functional score: 1.54
--
variant string: L341W
STK11 functional score: 1.25
--
variant string: M22V
STK11 functional score: 1.13
--
variant string: T367W
STK11 functional score: 1.4
--
variant string: A429L
STK11 functional score: 1.48
--
variant string: R409W
STK11 functional score: 1.42
--
variant string: R74C
STK11 functional score: 1.11
--
variant string: N393V
STK11 functional score: 0.689
--
variant string: K97D
STK11 functional score: 1.27
--
variant string: P222W
STK11 functional score: 0.686
--
variant string: H345C
STK11 functional score: 1.2
